As shown below, each of these binders has a reported Relative Proliferation Fold Change NKL 1:2 value.
Target: T1, orthogonal hCD122 receptor (hoRb), hCD122 with H133D and Y134F (human, UniProt P14784 27-550); further: reference of the scale not given here
T1 sequence: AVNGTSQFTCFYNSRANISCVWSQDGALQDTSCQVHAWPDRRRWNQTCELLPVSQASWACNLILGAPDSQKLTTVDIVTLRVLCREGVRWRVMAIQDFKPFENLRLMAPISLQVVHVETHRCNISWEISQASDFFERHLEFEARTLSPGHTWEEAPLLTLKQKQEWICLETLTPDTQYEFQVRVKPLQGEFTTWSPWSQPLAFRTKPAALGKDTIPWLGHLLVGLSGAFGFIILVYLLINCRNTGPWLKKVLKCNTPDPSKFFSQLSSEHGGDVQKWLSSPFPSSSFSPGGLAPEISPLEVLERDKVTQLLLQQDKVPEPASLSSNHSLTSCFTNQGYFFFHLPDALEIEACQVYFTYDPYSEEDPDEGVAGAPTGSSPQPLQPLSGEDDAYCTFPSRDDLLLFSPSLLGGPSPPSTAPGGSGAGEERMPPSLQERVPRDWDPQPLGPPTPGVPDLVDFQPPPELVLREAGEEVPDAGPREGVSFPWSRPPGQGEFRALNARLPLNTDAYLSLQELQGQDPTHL
Assay: cell-based or functional assay
Give just the numeric value; fold need not be written.

Read the entry G27S, SQVLKA (ligand) APTSSSTKKTQLQLSQLLVLLKAILNSINNYKNPKLTRMLTFKFYMPKKATELKHLQCLEEELKPLEEVLNLAQSKNFHLRPRDLISNINVIVLELKGSETTFMCEYADETATIVEFLNRWITFCQSIISTLT and write its reported Relative Proliferation Fold Change NKL 1:2.
4.21

Read the entry SNVLKA (ligand) APTSSSTKKTQLQLSNLLVLLKAILNGINNYKNPKLTRMLTFKFYMPKKATELKHLQCLEEELKPLEEVLNLAQSKNFHLRPRDLISNINVIVLELKGSETTFMCEYADETATIVEFLNRWITFCQSIISTLT and write its reported Relative Proliferation Fold Change NKL 1:2.
2.94

Read the entry SQVLKQ (ligand) APTSSSTKKTQLQLSQLLVLLKQILNGINNYKNPKLTRMLTFKFYMPKKATELKHLQCLEEELKPLEEVLNLAQSKNFHLRPRDLISNINVIVLELKGSETTFMCEYADETATIVEFLNRWITFCQSIISTLT and write its reported Relative Proliferation Fold Change NKL 1:2.
4.43

Read the entry T3Q, SQVLKA (ligand) APQSSSTKKTQLQLSQLLVLLKAILNGINNYKNPKLTRMLTFKFYMPKKATELKHLQCLEEELKPLEEVLNLAQSKNFHLRPRDLISNINVIVLELKGSETTFMCEYADETATIVEFLNRWITFCQSIISTLT and write its reported Relative Proliferation Fold Change NKL 1:2.
4.19

Provenance of the data: patent US20210196796A1
